# assay.name: Measurement of LogP values by HPLC on reversed phase columns (EEC directive 79/831 Annex V.A8)
# Format: physicochemical
# experimental.context: HPLC LC-UV, acidic range, 0.1% formic acid in water and acetonitrile as eluent
Please respond with reported chromatographic logP for every item in the list.

Any idea what its chromatographic logP is? The molecule is "Nc1nsc(C(=O)O)c1Br"
-0.07

Would you mind doing "O=C(NCC1CCCCC1)c1snc(N=C(c2ccccc2)c2ccccc2)c1Cl" as well?
5.65

Would you mind doing "O=Cc1c(N(Cc2ccccc2)Cc2ccccc2)nsc1C(=O)O" as well?
3.21

Another: "Nc1nsc(C(=O)O)c1Cl"
-0.13

Reference source: patent US20190110476A1
